assayDetails: Cytotoxicity against chinese hamster PC43-10 cells expressing human RFC after 96 hrs by CellTitre-Blue fluorescence assay
Type: functional, cell-based
conditionSummary: Cricetulus griseus, PC43-10, 96 h
Collected IC50 values appear next to each entry.

[
  {
    "smilesEntry": "Nc1nc2[nH]cc(CCCCc3ccc(C(=O)N[C@@H](CCC(=O)O)C(=O)O)cc3)c2c(=O)[nH]1",
    "resultUnits": "µM",
    "IC50": 0.0566
  },
  {
    "smilesEntry": "Nc1nc2[nH]c(CCCc3ccc(C(=O)N[C@@H](CCC(=O)O)C(=O)O)cc3)cc2c(=O)[nH]1",
    "resultUnits": "µM",
    "IC50": 0.649
  },
  {
    "smilesEntry": "Nc1nc2[nH]cc(CCc3ccc(C(=O)N[C@@H](CCC(=O)O)C(=O)O)cc3)c2c(=O)[nH]1",
    "resultUnits": "µM",
    "IC50": 0.0306
  }
]

* * *

Collected pIC50 values appear next to each entry.
assayDetails: Inhibition of GARFTase in human KB cells assessed as incorporation of [14C]-glycine into [14C]-formyl GAR incubated 30 mins prior to [14C]-glycine addition measured after 16 hrs by radiometric assay in presence of azaserin
Format: cell-based
pIC50: −log10 of the molar value.

[
  {
    "smilesEntry": "Nc1nc2[nH]cc(CCCCc3ccc(C(=O)N[C@@H](CCC(=O)O)C(=O)O)cc3)c2c(=O)[nH]1",
    "pIC50": 7.53
  },
  {
    "smilesEntry": "Nc1nc2[nH]cc(CCc3ccc(C(=O)N[C@@H](CCC(=O)O)C(=O)O)cc3)c2c(=O)[nH]1",
    "pIC50": 7.93
  },
  {
    "smilesEntry": "Nc1nc2[nH]c(CCCCc3ccc(C(=O)N[C@@H](CCC(=O)O)C(=O)O)cc3)cc2c(=O)[nH]1",
    "pIC50": 8.24
  }
]

* * *

assayDetails: Cytotoxicity against chinese hamster RT16 cells expressing human FRalpha after 96 hrs by CellTitre-Blue fluorescence assay
Assay type: functional, cell-based
conditionSummary: Cricetulus griseus, RT16, 96 h
endpointLabel: IC50 (µM)

[
  {
    "molecule": "Nc1nc2[nH]cc(CCCCc3ccc(C(=O)N[C@@H](CCC(=O)O)C(=O)O)cc3)c2c(=O)[nH]1",
    "endpointLabel": "IC50",
    "resultUnits": "µM",
    "valueMeasured": 0.0086
  },
  {
    "molecule": "Nc1nc2[nH]cc(CCc3ccc(C(=O)N[C@@H](CCC(=O)O)C(=O)O)cc3)c2c(=O)[nH]1 [PEMETREXED]",
    "endpointLabel": "IC50",
    "resultUnits": "µM",
    "valueMeasured": 0.0182
  }
]
